# Assayed target: T1, TNFR1 (Homo sapiens, UniProt P19438)
# T1 chain: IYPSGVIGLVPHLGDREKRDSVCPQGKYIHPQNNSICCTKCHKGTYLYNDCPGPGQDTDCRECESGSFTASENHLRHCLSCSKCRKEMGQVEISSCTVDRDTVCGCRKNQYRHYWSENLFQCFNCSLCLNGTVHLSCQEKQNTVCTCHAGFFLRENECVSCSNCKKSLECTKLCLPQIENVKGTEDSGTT
# Measurement notes: yeast display SC50
Measured property: apparent Kd (screen) (nM)

Here is how some binders turned out for apparent Kd (screen).
• E5H (designed binder) SMEEHVEKAAKEYEKKKKEAIEKHLEKLKAKDKEAAERFLKELEEAAKEYAKDEAKTMSEEEAKRRAKKYKEKVLLSELSEEEQKEIKEAEEKLVRTILKYVEEAAK = 0.446
• K68W (designed binder) SMEEEVEKAAKEYEKKKKEAIEKHLEKLKAKDKEAAERFLKELEEAAKEYAKDEAKTMSEEEAKRRAWKYKEKVLLSELSEEEQKEIKEAEEKLVRTILKYVEEAAK = 2.73
• K16N (designed binder) SMEEEVEKAAKEYEKNKKEAIEKHLEKLKAKDKEAAERFLKELEEAAKEYAKDEAKTMSEEEAKRRAKKYKEKVLLSELSEEEQKEIKEAEEKLVRTILKYVEEAAK = 0.335
• V6H (designed binder) SMEEEHEKAAKEYEKKKKEAIEKHLEKLKAKDKEAAERFLKELEEAAKEYAKDEAKTMSEEEAKRRAKKYKEKVLLSELSEEEQKEIKEAEEKLVRTILKYVEEAAK = 0.446

(I) I98R (designed binder) SMEEEVEKAAKEYEKKKKEAIEKHLEKLKAKDKEAAERFLKELEEAAKEYAKDEAKTMSEEEAKRRAKKYKEKVLLSELSEEEQKEIKEAEEKLVRTRLKYVEEAAK
(II) K93S (designed binder) SMEEEVEKAAKEYEKKKKEAIEKHLEKLKAKDKEAAERFLKELEEAAKEYAKDEAKTMSEEEAKRRAKKYKEKVLLSELSEEEQKEIKEAEESLVRTILKYVEEAAK
For the pair I and II , which member has the lower apparent Kd (screen) number? Label of pick, please.
II
(II: 0.653 nM, I: 1.4 nM)
